Species: Rattus norvegicus
Assay explanation: Open TG-GATES - Regimen: Single
Assay type: toxicity, organism-based, Sprague-Dawley
Parameters: regimen Single, gender Male, age 6 weeks
Condition details: in vivo, po, 0 mg/kg, 24 h, tissue Plasma, route gavage, dose level Control
Lab note: anything with LDH at or over 100 IU/L counts as yes; the rest go in no.

Lookup: Does the reported LDH for ClC(Cl)(Cl)Cl [CARBON TETRACHLORIDE] fall at or above the 100 IU/L mark?
Found: yes

Lookup: Does the reported LDH for CCC1(c2ccccc2)C(=O)NC(=O)NC1=O fall at or above the 100 IU/L mark?
Found: yes

Lookup: Does the reported LDH for OCCOCCN1CCN(C(c2ccccc2)c2ccc(Cl)cc2)CC1 (stereo unspecified) [HYDROXYZINE] fall at or above the 100 IU/L mark?
Found: no

Lookup: Does the reported LDH for CCc1oc2ccccc2c1C(=O)c1cc(Br)c(O)c(Br)c1 fall at or above the 100 IU/L mark?
Found: no

Lookup: Does the reported LDH for CC[C@H]1[C@@H]2C[C@H]3[C@@H]4N(C)c5ccccc5[C@]45C[C@@H]([C@@H]2[C@H]5O)N3[C@@H]1O fall at or above the 100 IU/L mark?
Found: no

Lookup: Does the reported LDH for CN(C)CCC=C1c2ccccc2COc2ccccc21 [DOXEPIN] fall at or above the 100 IU/L mark?
Found: yes

Lookup: Does the reported LDH for O=NN(CCCl)C(=O)NC1CCCCC1 fall at or above the 100 IU/L mark?
Found: yes

Lookup: Does the reported LDH for CC(C)N(CCC(C(N)=O)(c1ccccc1)c1ccccn1)C(C)C (stereo unspecified) [DISOPYRAMIDE] fall at or above the 100 IU/L mark?
Found: yes

Lookup: Does the reported LDH for O=NN1CCOCC1 fall at or above the 100 IU/L mark?
Found: yes

Lookup: Does the reported LDH for CN(C)C(=N)N=C(N)N fall at or above the 100 IU/L mark?
Found: no

Lookup: Does the reported LDH for CC1=C(CC(=O)O)c2cc(F)ccc2/C1=C\c1ccc([S+](C)[O-])cc1 (stereo unspecified) fall at or above the 100 IU/L mark?
Found: no
